# Assayed Target: IRAK4 (Homo sapiens (Human))
Readout: IC50

Consider the reported IC50 for these compounds:
CCC[C@H](N)c1cccc(-c2cc(N3CC(C)(C)C3)c3cnn(-c4cccc(CO)n4)c3c2)n1 ... < 100 nM
CC(N)c1cccc(-c2ccc3cnn(-c4cccc(C(F)(F)F)n4)c3c2)n1 (racemic) [Example 209] ... < 100 nM
NC(CC1CC1)c1cccc(-c2ccc3cnn(-c4cccc(CO)n4)c3c2)n1 (centres unmarked) ... < 100 nM
CCC[C@H](N)c1ccnc(-c2cc(OCCOC)c3cnn(-c4cccc(CO)n4)c3c2)n1 ... < 100 nM
Cc1cccc(-n2ncc3ccc(-c4cccc(N)n4)cc32)n1 ... 100 to 1000 nM
CCC[C@H](N)c1ccnc(-c2cc(OC)c3cnn(-c4cccc(CO)n4)c3c2)n1 ... < 100 nM
Cc1cccc(-n2ncc3ccc(-c4cccc(C(N)C(F)(F)F)n4)cc32)n1 (centres unmarked) ... 100 to 1000 nM
CCCC(N)c1cccc(-c2ccc3cnn(-c4cccc(C)n4)c3c2)n1 (centres unmarked) ... < 100 nM

Asked: Which IC50 value is on record for "Nc1cncc(-c2ccc3cnn(-c4cccc(CC(=O)O)n4)c3c2)c1" ?
Given back: 1000 to 10000 nM

Asked: Next entry: "CCC[C@H](N)c1cccc(-c2cc(C3=CCN(C(C)=O)CC3)c3cnn(-c4cccc(CO)n4)c3c2)n1"
Given back: < 100 nM

Asked: Next entry: "COCCC[C@H](N)c1cccc(-c2cc(OC)c3cnn(-c4cccc(CO)n4)c3c2)n1"
Given back: < 100 nM

Asked: Next entry: "CCC[C@H](N)c1cccc(-c2ccc3cnn(-c4cccc(CO)c4)c3c2)n1"
Given back: < 100 nM

Asked: Next entry: CCC[C@H](N)c1cccc(-c2cc(OCC3CCCNC3)c3cnn(-c4cccc(CO)n4)c3c2)n1 (some centres unmarked)
Given back: < 100 nM

---

Reported pIC50 values for a set of compounds
# Assayed Target: IRAK4 (Homo sapiens (Human))
pIC50: −log10 of the molar value.

Asked: Which pIC50 value is on record for "CCC[C@H](N)c1cccc(-c2cc(C3CCN(C)CC3)c3cnn(-c4cccc(CO)n4)c3c2)n1" ?
Given back: > 7.00

Asked: Next entry: Cc1cccc(-n2ncc3c(N)cc(-c4cccc(C(C)N)n4)cc32)n1 (centres unmarked)
Given back: > 7.00

Asked: Next entry: "CCC[C@H](N)c1cccc(-c2ccc3cnn(-c4cncc(C)n4)c3c2)n1"
Given back: > 7.00

Asked: Next entry: COCCOc1cc(-c2cccc([C@@H](N)C(C)F)n2)cc2c1cnn2-c1cccc(CO)n1 (some centres unmarked)
Given back: > 7.00

Asked: Next entry: "COC(=O)c1nc(-c2ccc3cnn(-c4cccc(C)n4)c3c2)ccc1N"
Given back: 5.00 to 6.00

---

# Assayed Target: IRAK4 (Homo sapiens (Human))
pIC50: −log10 of the molar value.
Reported pIC50 values for a set of compounds

Asked: Which pIC50 value is on record for CC[C@H](N)c1cccc(-c2cc(NC)c3cnn(-c4cccc(CO)n4)c3c2)n1 [Example 485] ?
Given back: > 7.00

---

Reported IC50 values for a set of molecules
# Assayed Target: IRAK4 (Homo sapiens (Human), UniProt Q9NWZ3)
# Sequence (Q9NWZ3 whole entry, species assumed): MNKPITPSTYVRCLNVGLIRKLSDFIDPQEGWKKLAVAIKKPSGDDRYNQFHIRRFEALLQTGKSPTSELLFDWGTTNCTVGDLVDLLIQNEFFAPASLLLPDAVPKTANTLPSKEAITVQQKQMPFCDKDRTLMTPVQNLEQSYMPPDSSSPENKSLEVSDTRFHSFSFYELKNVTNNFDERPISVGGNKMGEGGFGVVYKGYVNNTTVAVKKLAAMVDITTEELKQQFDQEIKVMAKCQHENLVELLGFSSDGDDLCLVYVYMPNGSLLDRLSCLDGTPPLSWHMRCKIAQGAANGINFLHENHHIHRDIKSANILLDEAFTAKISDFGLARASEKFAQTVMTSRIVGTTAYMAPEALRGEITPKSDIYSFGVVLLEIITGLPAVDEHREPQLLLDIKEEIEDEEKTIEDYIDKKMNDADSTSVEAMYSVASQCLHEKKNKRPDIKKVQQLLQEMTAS

Asked: Which IC50 value is on record for "C[C@H](N)c1cccc(-c2ccc3cnn(-c4cncc(CO)n4)c3c2)n1" ?
Given back: 0.1 to 1 µM

Asked: Next entry: NC(c1cccc(-c2ccc3cnn(-c4cccc(CO)n4)c3c2)n1)C1CC1 (centres unmarked)
Given back: < 0.1 µM

Asked: Next entry: "CCc1cccc(-n2ncc3ccc(-c4cccc(C(C)=O)n4)cc32)n1"
Given back: 0.1 to 1 µM

Asked: Next entry: C[S+]([O-])CC(N)c1cccc(-c2ccc3cnn(-c4cccc(CO)n4)c3c2)n1 (centres unmarked)
Given back: 1 to 10 µM
